- Assay Explanation: Plasma stability (human)
- Format: in vitro ADME
- Assay Context: read-out: Plasma Stability (Human) t1/2 (converted)
Quick reference for half-life among some compounds
Outcome Measure: half-life (h)

>>> df
                       structure  outcome_measure  measurement_units  test_result
0    O=C(CSc1cnn[nH]1)Nc1ccccc1F        half-life                  h         34.8
1  N#Cc1ccccc1NC(=O)CSc1cnn[nH]1        half-life                  h           23
2      O=C(CSc1cnn[nH]1)Nc1nccs1        half-life                  h         32.1
3     O=C(CSc1cnn[nH]1)Nc1ccccn1        half-life                  h         19.9
4  O=C(CSc1cnn[nH]1)Nc1ccc(F)cc1        half-life                  h         36.3

* * *

- Assay Explanation: Pharmacokinetic evaluation in mice, single intravenous dose
- Format: in vivo
- Assay Context: male, Balb/c, mouse, plasma, iv, 10 mg/kg
Outcome Measure: AUC(0-inf)

                   structure  outcome_measure   test_result
0  O=C(CSc1cnn[nH]1)Nc1nccs1       AUC(0-inf)  2810 ng·h/mL

* * *

- Assay Explanation: Solubility
- Format: physicochemical
- Assay Context: pH 7.4 (Table S1)
Quick reference for %Soluble among some molecules
Outcome Measure: %Soluble

>>> print(df.to_string())
                                   molecule  test_result
0   O=C(CSc1cnn[nH]1)Nc1ccccn1 [Compound 9]        87.4%
1  N#Cc1ccccc1NC(=O)CSc1cnn[nH]1 [Compound 3]        73.3%
2  NC(=O)N1c2ccccc2C=Cc2ccccc21 [Carbamazepine, reference compound]        85.1%
3  O=C(CSc1cnn[nH]1)Nc1ccc(F)cc1 [Compound 2]        73.4%
4   O=C(CSc1cnn[nH]1)Nc1nccs1 [Compound 25]        87.3%
5  CCCSc1ccc2nc(NC(=O)OC)[nH]c2c1 [Albendazole, reference compound]        20.1%
6  O=C(CSc1cnn[nH]1)Nc1ccccc1F [Compound 1]        65.2%

* * *

- Assay Explanation: Pharmacokinetic evaluation in mice, single intravenous dose
- Type: in vivo
- Assay Context: mouse, 10 mg/kg, male Balb/c mice, plasma, read-out: T(1/2), elimination half-life (converted)
Outcome Measure: half-life (min)

>>> print(df.to_string())
                                  molecule  outcome_measure  measurement_units  test_result
0  O=C(CSc1cnn[nH]1)Nc1nccs1 [Compound 25]        half-life                min           33

* * *

- Assay Explanation: Pharmacokinetic evaluation in mice, single intravenous dose
- Type: in vivo
- Assay Context: mouse, 10 mg/kg, male Balb/c mice, plasma
Outcome Measure: AUC(0-t) (ng·h/mL)

>>> print(df.to_string())
                                  compound  outcome_measure  test_result
0  O=C(CSc1cnn[nH]1)Nc1nccs1 [Compound 25]         AUC(0-t)         2800

Where these numbers come from: paper PMC8911640
